Entries and their Amylase Release, analog Plus Bn (0.3 nM) values follow.
Target: UniProt P52500
Sequence (P52500 whole entry): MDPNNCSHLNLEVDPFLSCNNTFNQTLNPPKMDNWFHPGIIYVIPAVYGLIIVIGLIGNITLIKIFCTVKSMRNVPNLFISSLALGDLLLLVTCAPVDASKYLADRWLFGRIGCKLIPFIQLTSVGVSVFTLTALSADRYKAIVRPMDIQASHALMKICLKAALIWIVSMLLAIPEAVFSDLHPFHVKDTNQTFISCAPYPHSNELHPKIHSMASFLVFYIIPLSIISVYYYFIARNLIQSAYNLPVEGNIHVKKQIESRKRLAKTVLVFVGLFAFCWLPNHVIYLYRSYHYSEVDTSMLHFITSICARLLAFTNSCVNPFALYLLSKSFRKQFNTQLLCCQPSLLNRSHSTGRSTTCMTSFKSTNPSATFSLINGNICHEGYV
Experiment: Amylase release from rat pancreatic acini (alone or Bn-stimulated)
Assay type: cell-based
Parameters: from tissue; host or cells: dispersed pancreatic acini
Details: analog 10 μM plus Bn 0.3 nM, Bn without analog 15 ± 1
Where a SMILES comes first, the peptide text is derived from it. Bridges are numbered along the chain shown (N, C = ends). [ ]: non-standard residue; d: D form. 2Nal = N[C@@H](Cc1ccc2ccccc2c1)C(=O)O; d2Nal = N[C@H](Cc1ccc2ccccc2c1)C(=O)O
# number then unit; no other words

compound	tested_system	measure	meas_value
C[C@H](N)C(=O)NCC(=O)N[C@H]1CSSC[C@@H](C(=O)O)NC(=O)[C@H](CO)NC(=O)[C@H]([C@@H](C)O)NC(=O)[C@H](Cc2ccccc2)NC(=O)[C@H]([C@@H](C)O)NC(=O)[C@H](CCCCN)NC(=O)[C@H](Cc2c[nH]c3ccccc23)NC(=O)[C@H](Cc2ccccc2)NC(=O)[C@H](Cc2ccccc2)NC(=O)[C@H](CC(N)=O)NC(=O)[C@H](CCCCN)NC1=O [SS-14, somatostatin-14, reference compound]	UniProt P52500	Amylase Release, analog Plus Bn (0.3 nM)	12 ± 1 % total
NCCCC[C@@H]1NC(=O)[C@@H](Cc2c[nH]c3ccccc23)NC(=O)[C@H](Cc2ccc(O)cc2)NC(=O)[C@@H](NC(=O)[C@H](N)Cc2ccc3ccccc3c2)CSSC[C@@H](C(=O)N[C@@H](Cc2ccc3ccccc3c2)C(N)=O)NC(=O)[C@H](Cc2ccc3ccccc3c2)NC1=O [Analog #3] (H-[d2Nal]CY[dW]K[2Nal]C[2Nal]-NH2; disulfide 2-7)	UniProt P52500	Amylase Release, analog Plus Bn (0.3 nM)	15 ± 1 % total
CC(C)[C@@H]1NC(=O)[C@H](CCCCN)NC(=O)[C@@H](Cc2c[nH]c3ccccc23)NC(=O)[C@H](Cc2ccc(O)cc2)NC(=O)[C@@H](NC(=O)[C@H](N)Cc2c[nH]c3ccccc23)CSSC[C@@H](C(=O)N[C@@H](Cc2ccc3ccccc3c2)C(N)=O)NC1=O [Analog #12] (H-[dW]CY[dW]KVC[2Nal]-NH2; disulfide 2-7)	UniProt P52500	Amylase Release, analog Plus Bn (0.3 nM)	13 ± 1 % total
NCCCC[C@@H]1NC(=O)[C@@H](Cc2c[nH]c3ccccc23)NC(=O)[C@H](Cc2ccc(O)cc2)NC(=O)[C@@H](NC(=O)[C@H](N)Cc2ccc3ccccc3c2)CSSC[C@@H](C(=O)N[C@@H](Cc2ccc3ccccc3c2)C(N)=O)NC(=O)[C@H](Cc2ccccc2)NC1=O [Analog #13] (H-[d2Nal]CY[dW]KFC[2Nal]-NH2; disulfide 2-7)	UniProt P52500	Amylase Release, analog Plus Bn (0.3 nM)	14 ± 1 % total
C[C@@H](O)[C@H](NC(=O)[C@@H]1CSSC[C@H](NC(=O)[C@H](N)Cc2ccc3ccccc3c2)C(=O)N[C@@H](Cc2ccc(O)cc2)C(=O)N[C@H](Cc2c[nH]c3ccccc23)C(=O)N[C@@H](CCCCN)C(=O)N[C@@H]([C@@H](C)O)C(=O)N1)C(N)=O	UniProt P52500	Amylase Release, analog Plus Bn (0.3 nM)	14 ± 2 % total

// switching to the query compound
Req: Which measured Amylase Release, analog Plus Bn (0.3 nM) belongs to C[C@@H](O)[C@@H]1NC(=O)[C@H](CCCCN)NC(=O)[C@@H](Cc2c[nH]c3ccccc23)NC(=O)[C@H](Cc2ccc(O)cc2)NC(=O)[C@@H](NC(=O)[C@H](N)Cc2ccccc2)CSSC[C@@H](C(=O)N[C@@H](Cc2ccc3ccccc3c2)C(N)=O)NC1=O [Analog #7] (H-[dF]CY[dW]KTC[2Nal]-NH2; disulfide 2-7) , tested on UniProt P52500?
Resp: 16 ± 1 % total
